Measured values drawn from patent US20190202883A1 for this set.

# experimental.system: T1, human GIPR (human, UniProt P48546 22-466)
# T1 sequence (looked up): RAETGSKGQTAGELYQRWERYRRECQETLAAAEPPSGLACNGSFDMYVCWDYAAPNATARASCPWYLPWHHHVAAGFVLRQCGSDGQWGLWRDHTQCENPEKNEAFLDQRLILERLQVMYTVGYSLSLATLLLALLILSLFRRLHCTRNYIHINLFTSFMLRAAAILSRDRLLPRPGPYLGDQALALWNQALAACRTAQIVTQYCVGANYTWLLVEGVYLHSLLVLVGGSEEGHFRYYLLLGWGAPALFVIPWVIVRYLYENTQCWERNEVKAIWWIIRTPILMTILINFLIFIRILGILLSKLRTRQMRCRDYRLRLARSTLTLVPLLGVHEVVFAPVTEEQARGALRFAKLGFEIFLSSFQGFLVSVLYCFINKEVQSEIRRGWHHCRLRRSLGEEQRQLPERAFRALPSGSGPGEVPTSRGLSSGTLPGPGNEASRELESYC
# measurement.notes: cell-based or functional assay
Square brackets hold non-standard residues; d marks the D form. Side chains are listed from the residue outwards. Phe(2-F) = N[C@@H](Cc1ccccc1F)C(=O)O; αMeF = C[C@](N)(Cc1ccccc1)C(=O)O; Iva = CC[C@](C)(N)C(=O)O; Oda = not defined here; Aib = CC(C)(N)C(=O)O
parameter: Agonist activity (EC50), Cre-luc reporter assay (nM)

The following binders have reported results that may help.
{"binder": "H-Y[Aib]EGT[αMeF]TSDK([Gly-Gly-Gly-Gly-Pal])[Aib]I[Aib]LDKQAQ[Iva]EFVRHLLNK[Aib]TRQRY-NH2", "experimental.result": 0.041}
{"binder": "H-Y[Aib]EGT[αMeF]TSDK([Gly-Gly-Gly-Gly-Oda])[Aib]I[Aib]LDKQAQ[Iva]EFVRHLLNK[Aib]TRQRY-NH2 (reading uncertain; also: printed as H-Tyr-Aib-Glu-Gly-Thr-αMePhe-Thr-Ser-Asp-Lys(-Gly-Gly-Gly-Gly-Oda)-Aib-Ile-Aib-Leu-Asp-Lys-Gln-Ala-Gln-Iva-Glu-Phe-Val-Arg-His-Leu-Leu-Asn-Lys-Aib-Thr-Arg-Gln-Arg-Tyr-NH2)", "experimental.result": 0.074}
{"binder": "Me-Y[Aib]EGT[αMeF]TSDK([Gly-Gly-Gly-Gly-Pal])[Aib]I[Aib]LDKQRQ[Iva]EFVRHLLNK[Aib]TRQR[Phe(2-F)]-NH2", "experimental.result": 0.093}
{"binder": "Me-Y[Aib]EGT[αMeF]TSDK([Gly-Gly-Gly-Gly-Pal])[Aib]K[Aib]LDKQRQ[Iva]EFVRHLLNK[Aib]TRQRY-NH2", "experimental.result": 0.051}

I = H-Y[Aib]EGT[αMeF]TSDK([Gly-Gly-Gly-Gly-Pal])SK[Aib]LDKQRQ[Iva]EFVRHLLNK[Aib]TRQRY-NH2
II = H-Y[Aib]EGT[αMeF]TSDK([Gly-Gly-Gly-Gly-Pal])SI[Aib]LDKQRQ[Iva]EFVRHLLNK[Aib]TRQRY-NH2
Of I and II , which one carries the higher reported Agonist activity (EC50), Cre-luc reporter assay? Give the label of your selection.
I
